Data origin: patent US20220073496A1

Measured bioavailability of individual entries
Assay: Rat PK evaluation
Type: in vivo
Conditions: rat, plasma; SD rats, IV 1 mg/kg, PO 5 mg/kg, n = 3; read-out: F % (absolute bioavailability)
Measured property: bioavailability (%)

1. COc1cc2nccc(Oc3cnc(NC(=O)c4cn(C5CC5)cc(-c5ccc(F)cc5)c4=O)nc3)c2cc1OC [Compound 32] :: 75.4
2. COc1cc2nccc(Oc3ccc(NC(=O)c4cn(C(C)C)nc(-c5ccc(F)cc5)c4=O)nc3)c2cc1OC [Compound 41] :: 103
3. COc1cc2nccc(Oc3ccc(NC(=O)c4nn(C(C)C)cc(-c5ccc(F)cc5)c4=O)cn3)c2cc1OC [Compound 29] :: 59.1
4. COc1cc2nccc(Oc3ncc(NC(=O)c4cn(C(C)C)nc(-c5ccc(F)cc5)c4=O)cn3)c2cc1OC [Compound 40] :: 63.4
5. COc1cc2nccc(Oc3ccc(NC(=O)c4nn(C(C)C)cc(-c5ccc(F)cc5)c4=O)nc3)c2cc1OC [Compound 15] :: 78.9
6. COc1cc2nccc(Oc3cnc(NC(=O)c4cn(C(C)C)cc(-c5ccc(F)cc5)c4=O)nc3)c2cc1OC [Compound 20] :: 53.3
7. COc1cc2nccc(Oc3ccc(NC(=O)c4cn(C(C)C)cc(-c5ccc(F)cc5)c4=O)nc3)c2cc1OC [Compound 14] :: 63.2
8. COc1cc2nccc(Oc3ccc(NC(=O)c4cn(C5CC5)cc(-c5ccc(F)cc5)c4=O)nc3)c2cc1OC [Compound 30] :: 78.7
9. COc1cc2nccc(Oc3cnc(NC(=O)c4nn(C5CC5)cc(-c5ccc(F)cc5)c4=O)nc3)c2cc1OC [Compound 33] :: 31.7
